Assay: Half life in CD-1 mouse at 20 mg/kg, po by LC-MS/MS method
Format: ADME, organism-based
Details: in vivo
OBSERVATION_TYPE: half-life (h)
Answers are plain numbers, in h.

Q: # query: half-life of entry Cc1n[nH]c2ccc(-c3cc(N[C@@H](CO)c4ccccc4)cnc3-c3cc(F)ccc3O)cc12
Result: 2.72

* * *

Test: MRT in Sprague-Dawley rat at 10 mg/kg, iv by LC-MS/MS method
Assay type: ADME, organism-based
Settings: in vivo
OBSERVATION_TYPE: MRT (h)
One number for each entry, in h.

Q: Looking for the measured MRT of Cc1n[nH]c2ccc(-c3cc(N[C@@H](CO)c4ccccc4)cnc3-c3cc(F)ccc3O)cc12 , can you help?
Result: 3.41

* * *

Assay: Cmax in Sprague-Dawley rat at 10 mg/kg, iv by LC-MS/MS method
Type: ADME, organism-based
Parameters: dose 10 mg/kg, route intravenous
Conditions: in vivo
OBSERVATION_TYPE: Cmax

Q: Fill blank: measured Cmax of the compound Cc1n[nH]c2ccc(-c3cc(N[C@@H](CO)c4ccccc4)cnc3-c3cc(F)ccc3O)cc12 is ____.
Result: 6540 ng/mL

* * *

Target: Fibroblast growth factor receptor 1 (Homo sapiens, UniProt P11362)
Sequence (P11362 whole entry): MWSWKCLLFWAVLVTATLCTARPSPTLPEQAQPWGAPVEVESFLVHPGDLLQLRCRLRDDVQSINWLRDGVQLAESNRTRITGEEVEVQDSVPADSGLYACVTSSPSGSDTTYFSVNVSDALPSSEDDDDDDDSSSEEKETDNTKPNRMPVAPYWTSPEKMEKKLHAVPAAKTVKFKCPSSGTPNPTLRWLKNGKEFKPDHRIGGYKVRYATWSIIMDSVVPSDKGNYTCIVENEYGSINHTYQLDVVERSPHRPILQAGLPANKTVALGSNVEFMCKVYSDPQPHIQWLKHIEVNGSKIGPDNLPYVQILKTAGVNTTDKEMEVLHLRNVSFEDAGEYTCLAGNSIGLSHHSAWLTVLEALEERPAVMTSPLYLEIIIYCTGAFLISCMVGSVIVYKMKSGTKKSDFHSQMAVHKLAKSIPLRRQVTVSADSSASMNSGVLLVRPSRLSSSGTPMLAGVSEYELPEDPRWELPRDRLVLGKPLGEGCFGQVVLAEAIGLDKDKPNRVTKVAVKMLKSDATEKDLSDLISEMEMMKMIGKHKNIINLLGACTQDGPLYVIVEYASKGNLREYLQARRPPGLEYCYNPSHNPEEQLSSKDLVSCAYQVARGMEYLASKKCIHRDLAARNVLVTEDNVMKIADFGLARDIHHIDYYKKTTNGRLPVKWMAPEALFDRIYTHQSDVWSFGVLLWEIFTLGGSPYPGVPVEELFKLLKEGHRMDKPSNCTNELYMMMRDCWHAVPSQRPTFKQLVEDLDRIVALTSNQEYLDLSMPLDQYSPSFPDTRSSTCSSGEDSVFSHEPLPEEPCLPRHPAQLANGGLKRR
Assay: Inhibition of recombinant human FGFR1 using poly (Glu,Tyr) 4:1 as substrate after 60 mins by ELISA
OBSERVATION_TYPE: pIC50
One number for each entry, as −log10 of the molar value.

Here's what some known entries look like.
1. Cc1n[nH]c2ccc(-c3cc(N[C@@H](CO)c4ccccc4)cnc3-c3ccccc3F)cc12    6.36
2. Cc1n[nH]c2ccc(-c3cc(N[C@@H](CO)c4ccccc4)cnc3-c3cc(F)cc(F)c3O)cc12    7.20
3. Cc1n[nH]c2ccc(-c3cc(N[C@@H](CO)c4ccccc4)cnc3-c3ccccc3CO)cc12    6.78

Kindly review the next compound as well.
Q: Tell me the measured pIC50 of Cc1n[nH]c2ccc(-c3cc(N[C@@H](CO)c4ccccc4)cnc3-c3ccccc3)cc12 , please.
Result: 6.89

* * *

Can you tell me IC50 for the items I'm about to list?
Target: Epidermal growth factor receptor (Homo sapiens)
Sequence (P00533 whole entry): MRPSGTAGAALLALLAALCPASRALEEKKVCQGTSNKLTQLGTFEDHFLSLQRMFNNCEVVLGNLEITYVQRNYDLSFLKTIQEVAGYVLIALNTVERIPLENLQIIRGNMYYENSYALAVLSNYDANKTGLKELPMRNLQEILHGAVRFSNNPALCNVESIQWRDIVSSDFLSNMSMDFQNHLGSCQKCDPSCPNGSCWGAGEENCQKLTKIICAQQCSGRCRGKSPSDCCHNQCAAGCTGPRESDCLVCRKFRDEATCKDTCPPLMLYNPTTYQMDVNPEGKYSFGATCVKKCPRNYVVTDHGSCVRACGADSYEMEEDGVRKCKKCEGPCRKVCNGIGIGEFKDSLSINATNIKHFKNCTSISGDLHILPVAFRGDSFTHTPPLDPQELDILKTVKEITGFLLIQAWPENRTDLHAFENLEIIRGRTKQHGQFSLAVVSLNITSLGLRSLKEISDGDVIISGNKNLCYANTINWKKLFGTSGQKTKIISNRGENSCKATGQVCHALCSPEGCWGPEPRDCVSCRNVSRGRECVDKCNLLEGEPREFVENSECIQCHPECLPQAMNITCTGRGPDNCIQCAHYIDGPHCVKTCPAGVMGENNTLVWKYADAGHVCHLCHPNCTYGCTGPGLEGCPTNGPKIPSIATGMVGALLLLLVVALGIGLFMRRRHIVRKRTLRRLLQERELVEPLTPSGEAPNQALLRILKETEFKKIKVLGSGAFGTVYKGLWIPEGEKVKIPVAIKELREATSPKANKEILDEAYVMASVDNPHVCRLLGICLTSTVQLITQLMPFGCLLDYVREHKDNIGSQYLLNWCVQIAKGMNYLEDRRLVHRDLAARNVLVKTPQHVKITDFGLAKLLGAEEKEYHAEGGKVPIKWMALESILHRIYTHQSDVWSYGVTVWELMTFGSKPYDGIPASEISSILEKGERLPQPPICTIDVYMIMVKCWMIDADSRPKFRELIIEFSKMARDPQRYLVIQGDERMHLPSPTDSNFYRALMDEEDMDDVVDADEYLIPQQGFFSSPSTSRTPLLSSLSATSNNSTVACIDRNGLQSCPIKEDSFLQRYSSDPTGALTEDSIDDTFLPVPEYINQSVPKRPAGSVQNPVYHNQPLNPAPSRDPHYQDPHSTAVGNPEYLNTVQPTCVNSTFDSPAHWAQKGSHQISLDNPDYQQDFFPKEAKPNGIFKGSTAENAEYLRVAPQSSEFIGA
Give bare numbers, in nM.

Some solved entries appear below for comparison.
1. Cc1n[nH]c2ccc(-c3cc(N[C@@H](CO)c4ccccc4)cnc3-c3cc(Cl)ccc3O)cc12    3.1
2. Cc1n[nH]c2ccc(-c3cc(N[C@@H](CO)c4ccccc4)cnc3-c3cc(F)ccc3O)cc12    4.7

Next compound, please.
Q: Return reported IC50; argument: Cc1n[nH]c2ccc(-c3cc(N[C@@H](CO)c4ccccc4)cnc3-c3ccc(F)cc3O)cc12
Result: 8.1

* * *

Can you tell me pIC50 for the items I'm about to list?
Target: Receptor tyrosine-protein kinase erbB-4 (Homo sapiens)
Sequence (Q15303 whole entry): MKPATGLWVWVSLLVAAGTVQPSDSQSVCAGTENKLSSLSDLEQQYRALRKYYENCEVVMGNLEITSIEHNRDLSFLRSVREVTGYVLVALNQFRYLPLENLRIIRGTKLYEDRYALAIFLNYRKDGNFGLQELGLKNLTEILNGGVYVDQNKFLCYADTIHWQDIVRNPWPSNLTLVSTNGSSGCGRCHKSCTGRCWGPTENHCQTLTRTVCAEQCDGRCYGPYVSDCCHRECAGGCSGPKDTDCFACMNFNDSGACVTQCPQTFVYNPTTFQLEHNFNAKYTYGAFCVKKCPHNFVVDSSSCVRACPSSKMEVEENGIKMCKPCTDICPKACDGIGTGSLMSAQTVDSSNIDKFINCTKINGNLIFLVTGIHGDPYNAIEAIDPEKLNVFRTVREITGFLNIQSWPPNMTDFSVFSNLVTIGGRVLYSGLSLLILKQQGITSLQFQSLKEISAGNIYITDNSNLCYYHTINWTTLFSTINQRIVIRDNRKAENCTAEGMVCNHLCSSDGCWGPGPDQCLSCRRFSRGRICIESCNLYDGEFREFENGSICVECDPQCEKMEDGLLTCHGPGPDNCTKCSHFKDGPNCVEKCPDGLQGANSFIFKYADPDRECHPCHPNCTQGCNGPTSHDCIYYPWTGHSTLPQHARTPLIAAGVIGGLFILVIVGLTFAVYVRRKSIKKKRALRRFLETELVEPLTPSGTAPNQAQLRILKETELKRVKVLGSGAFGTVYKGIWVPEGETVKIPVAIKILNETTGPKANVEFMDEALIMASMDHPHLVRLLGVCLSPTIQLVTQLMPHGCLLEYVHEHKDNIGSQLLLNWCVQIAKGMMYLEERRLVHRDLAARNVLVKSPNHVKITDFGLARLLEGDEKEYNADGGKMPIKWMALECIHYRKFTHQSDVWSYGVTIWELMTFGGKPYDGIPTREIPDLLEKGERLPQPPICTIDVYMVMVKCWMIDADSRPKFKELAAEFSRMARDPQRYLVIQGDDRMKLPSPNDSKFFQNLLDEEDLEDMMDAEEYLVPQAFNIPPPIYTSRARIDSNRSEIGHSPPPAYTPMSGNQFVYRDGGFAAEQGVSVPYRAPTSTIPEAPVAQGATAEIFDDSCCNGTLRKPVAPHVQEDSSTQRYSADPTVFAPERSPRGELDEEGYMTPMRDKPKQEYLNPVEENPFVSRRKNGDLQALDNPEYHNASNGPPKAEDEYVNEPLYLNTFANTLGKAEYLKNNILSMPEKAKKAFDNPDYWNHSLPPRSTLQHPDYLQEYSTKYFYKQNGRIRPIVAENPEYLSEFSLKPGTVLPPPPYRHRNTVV
Assay: Inhibition of recombinant ErbB4 (unknown origin) using poly (Glu,Tyr) 4:1 as substrate after 60 mins by ELISA
One number for each entry, as −log10 of the molar value.

Please review the entries below; each comes with its answer.
1. Cc1n[nH]c2ccc(-c3cc(N[C@@H](CO)c4ccccc4)cnc3-c3cc(F)ccc3O)cc12    8.21
2. Cc1n[nH]c2ccc(-c3cc(N[C@@H](CO)c4ccccc4)cnc3-c3cc(Cl)ccc3O)cc12    8.28
3. Cc1n[nH]c2ccc(-c3cc(N[C@@H](CO)c4ccccc4)cnc3-c3ccc(F)cc3O)cc12    8.62

As a next step, examine the molecule that follows.
Q: Tell me reported pIC50 for OC[C@H](Nc1cnc(-c2cc(Cl)ccc2O)c(-c2ccc3cnccc3c2)c1)c1ccccc1 , tested with Receptor tyrosine-protein kinase erbB-4 (Homo sapiens).
Result: 8.30

* * *

Target: Cyclin-dependent kinase 6 (Homo sapiens)
Sequence (Q00534 whole entry): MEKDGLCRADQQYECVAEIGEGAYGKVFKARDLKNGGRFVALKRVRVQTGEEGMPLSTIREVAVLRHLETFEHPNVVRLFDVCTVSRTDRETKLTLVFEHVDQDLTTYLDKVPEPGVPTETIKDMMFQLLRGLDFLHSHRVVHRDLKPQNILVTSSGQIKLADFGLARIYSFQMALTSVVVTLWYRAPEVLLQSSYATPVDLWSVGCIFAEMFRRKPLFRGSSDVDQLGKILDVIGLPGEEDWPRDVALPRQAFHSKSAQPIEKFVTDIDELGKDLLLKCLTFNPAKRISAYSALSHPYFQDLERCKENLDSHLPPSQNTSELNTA
pIC50: −log10 of the molar value.
OBSERVATION_TYPE: pIC50

1. Cc1n[nH]c2ccc(-c3cc(N[C@@H](CO)c4ccccc4)cnc3-c3cc(Cl)ccc3O)cc12    < 6.00

Read the next record carefully.
Q: Any idea what its pIC50 is? The compound is Cc1n[nH]c2ccc(-c3cc(N[C@@H](CO)c4ccccc4)cnc3-c3cc(F)ccc3O)cc12
Result: < 6.00

* * *

Test: Cmax in CD-1 mouse at 20 mg/kg, po by LC-MS/MS method
Assay type: ADME, organism-based
Design: dose 20 mg/kg, route oral
Conditions: in vivo
OBSERVATION_TYPE: Cmax
Please make sure the unit comes right after the number.

Q: Given Cc1n[nH]c2ccc(-c3cc(N[C@@H](CO)c4ccccc4)cnc3-c3cc(F)ccc3O)cc12 , state its recorded Cmax.
Result: 961 ng/mL

* * *

Provide the reported IC50 of each item.
Molecular target: Vascular endothelial growth factor receptor 2 (Homo sapiens, UniProt P35968)
Sequence (P35968 whole entry): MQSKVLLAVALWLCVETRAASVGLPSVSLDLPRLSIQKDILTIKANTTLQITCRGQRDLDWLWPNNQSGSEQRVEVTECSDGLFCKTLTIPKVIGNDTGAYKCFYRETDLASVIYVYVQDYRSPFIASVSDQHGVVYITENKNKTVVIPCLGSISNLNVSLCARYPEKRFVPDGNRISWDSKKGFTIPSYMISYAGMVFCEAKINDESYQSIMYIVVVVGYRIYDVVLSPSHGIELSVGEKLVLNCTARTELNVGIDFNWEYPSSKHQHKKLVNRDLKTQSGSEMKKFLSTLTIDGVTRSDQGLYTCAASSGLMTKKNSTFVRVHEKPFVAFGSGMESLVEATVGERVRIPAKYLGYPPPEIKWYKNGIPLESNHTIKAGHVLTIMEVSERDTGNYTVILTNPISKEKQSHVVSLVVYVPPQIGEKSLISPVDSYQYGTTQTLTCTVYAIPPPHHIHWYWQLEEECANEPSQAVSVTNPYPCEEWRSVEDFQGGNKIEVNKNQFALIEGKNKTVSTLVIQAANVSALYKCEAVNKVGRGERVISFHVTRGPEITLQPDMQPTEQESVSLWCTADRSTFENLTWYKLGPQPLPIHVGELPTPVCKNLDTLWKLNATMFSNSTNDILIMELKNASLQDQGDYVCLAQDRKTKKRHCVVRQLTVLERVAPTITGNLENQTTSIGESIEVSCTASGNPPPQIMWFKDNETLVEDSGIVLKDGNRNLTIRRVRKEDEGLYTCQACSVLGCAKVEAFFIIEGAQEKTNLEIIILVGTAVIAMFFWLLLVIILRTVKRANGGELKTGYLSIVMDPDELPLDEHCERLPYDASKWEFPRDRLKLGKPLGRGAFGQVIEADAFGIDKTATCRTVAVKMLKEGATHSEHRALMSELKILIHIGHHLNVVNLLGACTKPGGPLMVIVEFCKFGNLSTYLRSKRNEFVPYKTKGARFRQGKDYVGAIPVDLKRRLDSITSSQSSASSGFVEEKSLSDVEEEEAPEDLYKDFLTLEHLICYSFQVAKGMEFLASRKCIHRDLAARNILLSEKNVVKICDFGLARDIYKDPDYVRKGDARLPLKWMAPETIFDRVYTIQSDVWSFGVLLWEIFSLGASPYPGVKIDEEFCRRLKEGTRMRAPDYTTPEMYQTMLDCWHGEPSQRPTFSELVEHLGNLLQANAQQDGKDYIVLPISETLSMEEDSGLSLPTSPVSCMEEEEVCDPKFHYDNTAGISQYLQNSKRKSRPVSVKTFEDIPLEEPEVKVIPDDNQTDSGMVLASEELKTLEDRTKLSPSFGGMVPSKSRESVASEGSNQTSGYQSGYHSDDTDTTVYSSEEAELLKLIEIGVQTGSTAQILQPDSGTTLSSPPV
Assay: Inhibition of recombinant KDR (unknown origin) using poly (Glu,Tyr) 4:1 as substrate after 60 mins by ELISA
Numbers only, in nM.

Worked cases, answers included:
1) OC[C@H](Nc1cnc(-c2cc(Cl)ccc2O)c(-c2ccc3cnccc3c2)c1)c1ccccc1    0.8
2) Cc1n[nH]c2ccc(-c3cc(N[C@@H](CO)c4ccccc4)cnc3-c3ccc(F)cc3O)cc12    2.6
3) Cc1n[nH]c2ccc(-c3cc(N[C@@H](CO)c4ccccc4)cnc3-c3cc(Cl)ccc3O)cc12    3.7

Here is the next item to consider.
Q: Give the measured IC50 of Cc1n[nH]c2ccc(-c3cc(N[C@@H](CO)c4ccccc4)cnc3-c3cc(F)ccc3O)cc12 .
Result: 1.7

* * *

Molecular target: Fibroblast growth factor receptor 1 (Homo sapiens)
Experiment: Inhibition of recombinant human FGFR1 using poly (Glu,Tyr) 4:1 as substrate after 60 mins by ELISA
OBSERVATION_TYPE: log10(IC50) (log10 of the value in nM)
Could you please treat all values as log10 of IC50 in nM?

1. Cc1n[nH]c2ccc(-c3cc(N[C@@H](CO)c4ccccc4)cnc3-c3cccc(F)c3O)cc12    1.45

Please look at the items below and tell me log10(IC50) for each one, in order.
1. Cc1n[nH]c2ncc(-c3cc(N[C@@H](CO)c4ccccc4)cnc3-c3cc(Cl)ccc3O)cc12
2. Cc1n[nH]c2ccc(-c3cc(N[C@@H](CO)c4ccccc4)cnc3-c3cccc4cc[nH]c34)cc12
3. OC[C@H](Nc1cnc(-c2cc(Cl)ccc2O)c(-c2ccc3cnccc3c2)c1)c1ccccc1
4. Cc1n[nH]c2ccc(-c3cc(N[C@@H](CO)c4ccccc4)cnc3-c3cc(F)ccc3O)cc12
5. Cc1n[nH]c2ccc(-c3cc(N[C@@H](CO)c4ccccc4)cnc3-c3cc(Cl)ccc3O)cc12

Result:
1: 1.40; 2: 2.66; 3: 1.21; 4: 1.26; 5: 1.75

* * *

Assay: Apparent clearance in Sprague-Dawley rat at 10 mg/kg, iv by LC-MS/MS method
Type: ADME, organism-based
Conditions: in vivo, read-out: CL(app) (converted)
OBSERVATION_TYPE: clearance

Q: // lookup clearance for Cc1n[nH]c2ccc(-c3cc(N[C@@H](CO)c4ccccc4)cnc3-c3cc(F)ccc3O)cc12
Result: 12.1 mL/min/kg
